- assay.notes: Half life of compound in water at 2.5 mg by HPLC method
- Assay type: physicochemical

# molecule, half-life, h
records = [
    ("CC(=O)Oc1ccccc1C(=O)O [ASPIRIN]", 2.13),
]
